# assay_procedure: NCI Yeast Anticancer Drug Screen. Data for the sgs1 mgt1 strain (AID 161);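 note: 0% = growth of cultures given vehicle only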
# recorded_conditions: S. cerevisiae sgs1 mgt1 strain, at 50.0 µM, stronger effect = higher value
This is part of a sample that, as a whole, favours compounds with a hit. Of some 79,000 tested, about 15% had one in any assay.
Reported values of growth inhibition for individual entries

compound	unit	growth inhibition
COc1cc(C(=O)Oc2c(C(C)=O)sc3c2c(=O)n(-c2ccccc2)c(=S)n3-c2ccccc2)cc(OC)c1OC	%	8.45
O=C(O)/C=C\c1ccc(OC(=O)c2ccccc2)cc1	%	-21
CC(C)CC(C)C	%	20.7
CC(=O)C(C)(C)OC(=O)COc1ccc(Cl)cc1	%	-9.45
CCOC(=O)C12CC(COc3ccc([N+](=O)[O-])cc3)ON1OC(COc1ccc([N+](=O)[O-])cc1)C2 (stereo unspecified)	%	17.2
O=C(NCCN1CCCCC1)c1ccc(Br)cc1	%	-12.6

###

# assay_procedure: NCI Yeast Anticancer Drug Screen. Data for the bub3 strain (AID 167)
# recorded_conditions: S. cerevisiae bub3 mutant strain, at 50.0 µM, stronger effect = higher value
Compounds without any hit were thinned out: in the full panel of roughly 79,000, 15% have a hit.
measured_attribute: growth inhibition (%)

compound	measured_attribute	unit	result
CCOC(=O)C(CCN(C)C)C(=O)OCC	growth inhibition	%	-23.1
Nc1ncnc2c1ncn2CCC(COCc1ccccc1)COCc1ccccc1	growth inhibition	%	4.6
O=C(O)CCC(=O)Nc1ccc(Cl)cc1	growth inhibition	%	5.15
O=C(Nc1cccc(C(F)(F)F)c1)c1ccco1	growth inhibition	%	11.1
CN(C)c1ccc([N+](=O)[O-])cc1	growth inhibition	%	-9.2
CCOC1C=CCCC1 (stereo not drawn)	growth inhibition	%	14.8
CCOC(=O)C(=CNC(=S)Nc1ccc(Cl)c(Cl)c1)C(=O)OCC	growth inhibition	%	39
O=C(c1ccccc1)c1ccccc1	growth inhibition	%	14.3
NC(=O)Nc1ccc([N+](=O)[O-])cc1	growth inhibition	%	-11.9
CCOC(=O)c1c(/N=C/c2ccc3c(c2)OCO3)sc2c1CCCC2	growth inhibition	%	11.3
COc1ccc(C2(C(=O)O)CC(C)=C(C)CC2C(=O)O)cc1 (stereo not drawn)	growth inhibition	%	-11.7
OC1(c2ccccc2)CC2C=CC1C2 (stereo not drawn)	growth inhibition	%	15.3
CC(=O)Nc1cc(F)c(N=Nc2ccc([N+](=O)[O-])cc2)c(F)c1	growth inhibition	%	-28.1

###

# assay_procedure: NCI Yeast Anticancer Drug Screen. Data for the bub3 strain (AID 167)
# recorded_conditions: S. cerevisiae bub3 mutant strain, at 50.0 µM, stronger effect = higher value
The panel holds about 79,000 compounds, 15% with a hit somewhere; the sample as a whole holds those more often.

molecule	growth inhibition (%)
CCCCCNN	-6.75
CN1CC(=O)N(CO)/C1=N\CO	5.85
O=[N+]([O-])/C(Cl)=C(\NCCO)C(Cl)=C(Cl)Cl	23.9
C=CCCCCCCCCC(=O)OC	-5.1
O=C(Oc1ccccc1Cl)C1=C(C(=O)Oc2ccccc2Cl)CCC1	4.55
COc1ccc(C(=O)c2cc3c(ccc4ccccc43)oc2=O)cc1	23.9
CSc1ccc(N=Cc2ccccc2O)cc1	8.85
CCOC/C(=N\NC(N)=O)c1ccccc1	9.3
O=c1c2c(nc3n1CCC3)sc1c(O)c(Br)ccc12	-40
NC(=O)NC(CCl)NC(N)=O	-3.55
O=C(NN1C(=O)C(Cl)C1c1cccc(O)c1)c1ccccc1O (stereo unspecified)	-29.2
CC(=O)N1CC(C)CC2OC3(CCC4C5CCC6CC(=O)CCC6(C)C5C(=O)C4C3C)C(C)C21 (stereo unspecified)	-5.9
CC(C)=C1C(=O)C[C@]2(C)C/C=C(\C)CC/C=C(\C)CC[C@@H]12	58.9
CCOC(=O)CN1CN(CCc2ccccc2)CC(C)(C)C1OCC (stereo unspecified)	41.2
N#CC(C(=O)C(=O)Nc1cccc(C(F)(F)F)c1)c1cccc(Cl)c1 (stereo unspecified)	19.6
Cn1c(=O)c2c(nc(Cl)n2C)n(C)c1=O	-7.65
COC(=O)C1=NC(=O)C(C#N)=C(C(=O)OC)C1(C(=O)c1ccc(OC)cc1)c1ccc(OC)cc1 (stereo unspecified)	11.9
CCOC1CS(=O)(=O)CC(OCC)O1 (stereo unspecified)	-8.35
CCOC(=O)c1[nH]c(C)c(/C(C)=N\NC(N)=O)c1C	8
CCOP(=O)(O)C1CC2C3CC=C4CC(O)CCC4(C)C3CCC2(C)C1C(C)=O (stereo unspecified)	-2
COc1ccc(CC(=O)NC(N)=O)cc1	-6.1
NC(=O)CNCc1ccccc1	0.25
OC1COCOC1C(O)C1OCOCC1O (stereo unspecified)	-6.15
C/C(=N\Nc1ccc([N+](=O)[O-])cc1)C(=O)N(C)Nc1ccccc1	-59.7
CCCCCCCCCCC(=O)OCC	1.2
NCc1ccc(S(=O)(=O)Nc2cc(Br)cc(Br)c2)cc1	12

###

Reported values of growth inhibition for individual entries
# assay_procedure: NCI Yeast Anticancer Drug Screen. Data for the rad50 strain (AID 155);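 note: 0% = growth of vehicle-only cultures of the same strain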
# recorded_conditions: S. cerevisiae rad50 strain growth inhibition; at 50.0 µM; stronger effect = higher value
The panel holds about 79,000 compounds, 15% with a hit somewhere; the sample as a whole holds those more often. Calls of active or inactive are those of the source. Cut-off read from the data, not from the text of the source: active = growth inhibition above about 70%; inactive = the rest.

compound	growth inhibition
CN(C)C=S	-4.6% (inactive)
Cc1cc2[nH]c3c(C#N)c4c(c(=O)n3c2cc1C)CCCC4	10.1% (inactive)
O=[N+]([O-])c1cc(Br)ccc1N1CCCCC1	-3.15% (inactive)
CCN(CC)C(=O)Cn1c2c(c3ccccc31)CCCC2	33.4% (inactive)
Oc1ccccc1-c1n[nH]c(=S)n1/N=C/c1ccc(-c2ccc(Br)cc2)o1	-30.5% (inactive)
COC(=O)c1cc(OC)c2cccnc2c1Nc1ccccc1	-7.75% (inactive)
CCOC(=O)CCN(CC1CC=CCC1)c1cc(O)c2c(c1O)C(=O)c1ccccc1C2=O (stereo not drawn)	-70.6% (inactive)
CC1(Br)CC2=C(CC1(C)Br)C(=O)C(c1ccccc1)=C(c1ccccc1)C2=O (stereo not drawn)	9.25% (inactive)
N#CC(C(=O)O)C1(C(C#N)C(=O)O)CCN(Cc2ccccc2)CC1 (stereo not drawn)	-9.9% (inactive)
Cc1c(Cl)c2ccc(N(C)C)cc2[nH]c1=O	-2.9% (inactive)
CC(C)CNC(=S)N/N=C/c1ccc(N)cc1	31.6% (inactive)
O=c1[nH]c(Nc2ccc(F)c(Cl)c2)nc2nc[nH]c12	4.4% (inactive)
CCCCC(=O)Nc1ccc(S(=O)(=O)O)c(N=NC2C(=O)N(c3ccccc3)N=C2C)c1 (stereo not drawn)	27.1% (inactive)
CC/C(=C/c1cccc([N+](=O)[O-])c1)C(=O)O	-9.3% (inactive)
CCOC(=O)CN(c1scc(-c2ccccc2)c1C(=O)OCC)S(=O)(=O)c1ccc(C)cc1	-15.7% (inactive)
COc1ccc(-c2cc3cc(OC)c(OC)cc3c[n+]2C)cc1OC	28.3% (inactive)
CCC(CC)=NNc1ccc([N+](=O)[O-])cc1[N+](=O)[O-]	-2.45% (inactive)
COc1ccc(C)cc1NC(=S)NC(=O)c1ccc(Cl)cc1Cl	1.7% (inactive)
Cc1ccc(-c2c(C#N)c(-c3ccc([N+](=O)[O-])cc3)c(C#N)c(=O)n2NS(=O)(=O)c2ccccc2)cc1	23.1% (inactive)
O=C1/C(=C/c2ccccc2)CCCC/C1=C\c1ccccc1	27.9% (inactive)
O=C(O)COc1ccc(/C=C2\SC(=S)NC2=O)cc1	-3.9% (inactive)
CN1CCN(S(=O)(=O)C(c2ccccc2)C2(O)CCCCC2)CC1 (stereo not drawn)	-1.3% (inactive)
COc1cc(C(=O)NC(CCN)(c2ccccc2)c2ccccc2)cc(OC)c1OC	-2.55% (inactive)

###

# assay_procedure: NCI Yeast Anticancer Drug Screen. Data for the rad50 strain (AID 155);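 note: 0% = growth of vehicle-only cultures of the same strain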
# recorded_conditions: S. cerevisiae rad50 strain growth inhibition; at 50.0 µM; stronger effect = higher value
The panel holds about 79,000 compounds, 15% with a hit somewhere; the sample as a whole holds those more often.

compound	unit	growth inhibition
O=C1NN2CCN=C2c2ccccc21	%	-60.5
O=C1CCc2nc(=O)c3c4ccccc4ccc3n21	%	3.95
CCn1c(C)[n+](CCCOS(=O)(=O)[O-])c2ccccc21	%	2.6
CN1C(=O)C(=O)OC1=C(c1ccccc1)c1ccccc1	%	2.9
O=S(=O)(c1cccc(C(F)(F)F)c1)N(CCCCN(S(=O)(=O)c1cccc(C(F)(F)F)c1)S(=O)(=O)c1cccc(C(F)(F)F)c1)S(=O)(=O)c1cccc(C(F)(F)F)c1	%	-13.8
Cc1cccc(-c2cc3cccnc3nc2NN=O)c1C	%	64.8
COc1ccc(CC(=O)NC(N)=O)cc1	%	-6.35
[N-]=[N+]=NC[C@H]1OCO[C@H](CN=[N+]=[N-])[C@H]2OCCOCCOc3ccccc3OCCOCCO[C@@H]21	%	-13.2
CCOC(=O)C(CCCCS(=O)(=O)O)C(=O)OCC	%	-12.3
O=C(CCc1ccccc1)n1cccc1CO	%	-10.1
C=CCNC(=O)CN(CC(=O)OC)C1CCCCC1N(CC(=O)OC)CC(=O)OC (configuration not stated)	%	-8.3
S=C(N/N=C/c1ccc(Cl)cc1Cl)NC1CCc2ccccc21 (configuration not stated)	%	-12.3
CCOC(=O)/N=c1/nc(N(C)C)ss1	%	-18.9
O=C(CN(Cc1ccccc1)Cc1ccccc1)NC(=O)c1ccccc1	%	4.5
Cc1ccc([B-]23OCC[N+]2(CNC(=O)c2ccccc2O)CCO3)cc1 (configuration not stated)	%	25.6
OCCNc1ncnc2ccccc12	%	-16.6
CN(C)c1ncnc2ncn(C3OC(CO)C(O)C3O)c12 (configuration not stated)	%	67.6
CCCCC(O)C(=O)NCCC(=O)c1ccccc1 (configuration not stated)	%	-7.1
Cc1ccc(-n2cnc3c(Cl)ncnc32)cc1	%	-18.1
CC(=O)OCC1OC(n2nc(/C=C/c3ccco3)c(=O)n(-c3ccccc3)c2=S)C(OC(C)=O)C(OC(C)=O)C1OC(C)=O (configuration not stated)	%	57.5
CCCCCCCC(NC(C)=O)(C(=O)OCC)C(=O)OCC	%	-9.25
C#Cc1c(C)c(/C=C/C(C)=C/C=C/C(C)=C/C(=O)OC)n(C)c1C	%	12.2
CC(C)C(/C=C/c1ccccc1)=N\NC(=S)NN	%	-5.25
C=CCNC(=S)N/C=C\c1c(C(=O)O)cc([N+](=O)[O-])cc1[N+](=O)[O-]	%	-7.85
Cc1ccc(NC(=O)c2ccccc2[N+](=O)[O-])cc1	%	12.5
CCn1c2ccccc2c2ccc(N=Cc3ccc4ccccc4c3)cc21	%	5.65
COc1cc(C(=O)Nc2cccc3ccccc23)c(Br)c(OC)c1OC	%	19.3
CN(C)c1ccc(-c2c(C#N)c(O)n(NS(=O)(=O)c3ccccc3)c(=O)c2C#N)cc1	%	-28.9
ClCC1OC1CCl (configuration not stated)	%	22.1
CC1(C)OC2C(COCc3ccccc3)=CC(n3ccc(=O)[nH]c3=O)C2O1 (configuration not stated)	%	-8.3
O=C1NC(=O)c2c1c1cnn(-c3ccccc3)c1n1cccc21	%	15.1
CC1OC2(CC(OCc3ccccc3)C1OCc1ccccc1)OCCO2 (configuration not stated)	%	-10.9
NC(=O)CCCc1ccc2oc3ccccc3c2c1	%	13.4
C[n+]1nc([O-])oc1-c1ccccc1	%	4.5
O=C1Oc2ccccc2C(=O)Oc2ccccc2C(=O)Oc2ccccc2C(=O)Oc2ccccc21	%	-43.7
Cc1ccccc1-[n+]1noc(N)n1	%	4.75
CCOC(=O)/C=C(/C)c1ccccc1	%	12.2
CC1=NNC(=O)C1	%	4.65
CC(=O)n1c(=O)c2cc3c(=O)n(-c4cccc(C#N)c4)c(=O)c3cc2c1=O	%	-25.4
NC(=O)c1csc(CCCCCCc2nc(C(N)=O)cs2)n1	%	-13.8
CSc1nc(-c2ccccc2)c2c(n1)-c1ccccc1CC2	%	-4.95
O=C(O)CNCc1ccc2c(c1)OCCO2	%	6.7
Cc1ccc(C(=S)NC(=O)Nc2ccccc2)cc1	%	-7.1
O=c1[nH]c(-c2ccc(-c3nc4cc([N+](=O)[O-])ccc4c(=O)[nH]3)cc2)nc2cc([N+](=O)[O-])ccc12	%	-33
CCOC(=O)C(Cc1ccc([N+](=O)[O-])cc1)NC(=O)CC1c2ccccc2-c2ccccc21 (configuration not stated)	%	-10.1
C/C(=N\NC(=S)N(C)C)c1nc2ncccc2[nH]1	%	-44.1
O=[N+]([O-])C(/C=N/Nc1ccccc1)/C=N/Nc1ccccc1	%	-5.95
